experimental-system: ScLsb3
assay-notes: SPOT peptide array binding signal intensity (averaged, normalized) (arbitrary units (background-subtracted, floor 0; scale differs between SH3 domains)); higher = stronger binding of the SH3 domain to the peptide
measurement-label: SPOT peptide array binding signal intensity
# print the numeric value only

Lookup: State its SPOT peptide array binding signal intensity: `RRLRDKYKLPIVDAD`
Found: 90

Lookup: State its SPOT peptide array binding signal intensity: `PSTMDFPKLPSFQNS`
Found: 184

Lookup: State its SPOT peptide array binding signal intensity: `TEVPIPRRPPPPQAA`
Found: 118

Lookup: State its SPOT peptide array binding signal intensity: `QTMRQAPKRPDADVA`
Found: 961

Lookup: State its SPOT peptide array binding signal intensity: `HVRRSILALPLGVLL`
Found: 182

Lookup: State its SPOT peptide array binding signal intensity: `APERAVPILPPRNNV`
Found: 4520
